- Assay system: T1, SmN C-terminal tail, residues 167-240 (complete proline-rich region), wild type (human, UniProt P63162 167-240)
- T1 construct: The ITC methods print 168-240 for this construct; also called SmN_167-240 WT; source: E. coli BL21, purified (Ni-NTA, TEV cleavage, gel filtration); not shown: His6, N-terminal, cleaved; GST, N-terminal, cleaved
- Procedure text: ITC; purified OCRE mutants (2 mM) titrated to wild type SmN (29.5 μM); ITC200, 24°C, 20 mM sodium phosphate pH 6.5, 50 mM NaCl; duplicates
- Test settings: both partners purified
Items are presented alongside their recorded Kd.
The answer is to be given in µM; state only the numeric part.

Worked examples follow.
- RBM5 OCRE domain (451-511) Y486A (domain or fragment, human, tripeptide left by the TEV cleavage; RBM5, human, OCRE domain, residues 451-511; source: E. coli BL21, purified (Ni-NTA, TEV cleavage, gel filtration); not shown: His6, N-terminal, cleaved) GAMGTKYAVPDTSTYQYDESSGYYYDPTTGLYYDPNSQAYYNSLTQQYLYWDGEKETYVPAAES: 145
- RBM5 OCRE domain (451-511) Y495T (domain or fragment, human, tripeptide left by the TEV cleavage; RBM5, human, OCRE domain, residues 451-511; source: E. coli BL21, purified (Ni-NTA, TEV cleavage, gel filtration); not shown: His6, N-terminal, cleaved) GAMGTKYAVPDTSTYQYDESSGYYYDPTTGLYYDPNSQYYYNSLTQQTLYWDGEKETYVPAAES: 186
- RBM5 OCRE domain (451-511) Y495A (domain or fragment, human, tripeptide left by the TEV cleavage; RBM5, human, OCRE domain, residues 451-511; source: E. coli BL21, purified (Ni-NTA, TEV cleavage, gel filtration); not shown: His6, N-terminal, cleaved) GAMGTKYAVPDTSTYQYDESSGYYYDPTTGLYYDPNSQYYYNSLTQQALYWDGEKETYVPAAES: 172
- RBM5 OCRE domain (451-511) Y488A (domain or fragment, human, tripeptide left by the TEV cleavage; RBM5, human, OCRE domain, residues 451-511; source: E. coli BL21, purified (Ni-NTA, TEV cleavage, gel filtration); not shown: His6, N-terminal, cleaved) GAMGTKYAVPDTSTYQYDESSGYYYDPTTGLYYDPNSQYYANSLTQQYLYWDGEKETYVPAAES: 220

Any idea what Kd was measured for RBM5 OCRE domain (451-511) Y479A (domain or fragment, human, tripeptide left by the TEV cleavage; RBM5, human, OCRE domain, residues 451-511; source: E. coli BL21, purified (Ni-NTA, TEV cleavage, gel filtration); not shown: His6, N-terminal, cleaved) GAMGTKYAVPDTSTYQYDESSGYYYDPTTGLAYDPNSQYYYNSLTQQYLYWDGEKETYVPAAES ?
111
